System: ACHN renal
assay_text: NCI tumour cell line growth inhibition, 48 h
metric_name: TGI

Q: Any idea what its TGI is? The molecule is CC(C)=CC(O)C/C(C)=C/CC/C(C)=C/CCC1(C)C(CCCO)/C(=C(/C)C=O)CCC1(C)O (stereo not given)
Ans: 43.6 µM

Q: Another: CC(=O)c1c(O)ccc2c(C)c(C(=O)O)oc12
Ans: > 100 µM

====

Tested on: M14 melanoma
assay_text: NCI tumour cell line growth inhibition, 48 h
The following compounds are listed with their measured TGI values.

Previously resolved entries follow.
Q: API: value(readout=TGI, system=M14 melanoma) for record O=C(Nc1ccc([N+](=O)[O-])cc1C(=O)O)c1ccc([N+](=O)[O-])cc1
Ans: > 100 µM

Q: Another: O=c1[nH]ccc2nc(-c3ccc(CN4CCC(c5nc(-c6ccccn6)n[nH]5)CC4)cc3)c(-c3ccccc3)cc12
Ans: > 100 µM

Others:
Q: API: value(readout=TGI, system=M14 melanoma) for record C[C@@H]1OC(=O)C[C@H]2CC(=O)N(CCC3CN(S(=O)(=O)C(F)(F)F)c4ccc(Cc5ccc6c(c5)C(CCN5C[C@H]7[C@@H](CC(=O)O[C@H]7C)CC5=O)CN6S(=O)(=O)C(F)(F)F)cc43)C[C@@H]21 (stereo partly drawn)
Ans: > 100 µM
